# Tested system: Aryl hydrocarbon receptor (Homo sapiens)
# Test name: AHR activators, primary screen, cell-based, luminescence, luciferase reporter, human (AID 2796);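 further: 0% = vehicle wells and 100% = reference agonist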
# Condition description: AHR-responsive luciferase reporter cells, at 5 µM, hits give high values
Out of some 320,000 compounds screened, about 8,000 (2.5%) were called active. The full list was thinned out, with actives kept by preference.
The threshold is inclusive: activation of exactly 10% counts as 1 (yes); values below receive 0 (no).

As a guide, the following entries are already answered.
Compound | Tested system | Cat
CC(OC(=O)c1c(F)cccc1F)C(=O)NCCC1=CCCCC1 (stereo unspecified) | Aryl hydrocarbon receptor (Homo sapiens) | 0 (no)
CN(CC(=O)NCCc1ccc(S(N)(=O)=O)cc1)CC(=O)Nc1ccc(F)c(F)c1F | Aryl hydrocarbon receptor (Homo sapiens) | 0 (no)
O=C(CSc1cccc2cccnc12)N/N=C/c1cccnc1 | Aryl hydrocarbon receptor (Homo sapiens) | 1 (yes)
O=C(c1ccc(F)cc1)C1CCN(Cc2cn[nH]c2-c2ccccc2)CC1 | Aryl hydrocarbon receptor (Homo sapiens) | 0 (no)
COc1cccc(-c2ccc3c(c2)S(=O)(=O)c2cccc(C(=O)O)c2C3=O)c1OC | Aryl hydrocarbon receptor (Homo sapiens) | 0 (no)
CCSc1nsc(NC(=O)Nc2cccc(C(C)=O)c2)n1 | Aryl hydrocarbon receptor (Homo sapiens) | 1 (yes)
C=CCn1c(SCC(=O)Nc2ccc(NC(C)=O)cc2)nc2sc(C)c(C)c2c1=O | Aryl hydrocarbon receptor (Homo sapiens) | 0 (no)
CC[n+]1cc(C)ccc1/C=C/c1ccc(N(C)C)cc1 | Aryl hydrocarbon receptor (Homo sapiens) | 0 (no)

We next turn to a different compound, shown below.
// inclusive: activation at least 10%? input: COCCSc1nnc(NC(=O)CCS(=O)(=O)Cc2ccccc2)s1
1 (yes)

Hello, the source for this data is PubChem BioAssay AID2796, in case you need it.
